- STUDY_SYSTEM: DNA polymerase kappa (Homo sapiens)
- TEST_SUMMARY: qHTS for Inhibitors of Polymerase Kappa
- STATED_CONDITIONS: purified Pol kappa, fluorescent DNA synthesis assay, 10 min; series mostly up to 107 µM
The whole screen tested about 400,000 compounds, of which about 2,200 (0.55%) were called active. Inconclusive results (about 1%) are left out. Calls come from the whole dose curve; as a rule, active = well fitted inhibition curve with a large enough effect; inconclusive = small, poorly fitted or top-dose-only effect, or another doubt; inactive = no such curve, though single readings can be large or run the other way. The list comes from a sample in which actives are over-represented; it also holds close analogues and randomly drawn compounds.
Please reply with one of these outcomes: 1 (yes) (active), 0 (no) (inactive)

Short answer needed: outcome of this test for CCOC(=O)CSC1=Nc2ccccc2C2=NC(CCC(=O)NCc3ccc(F)cc3)C(=O)N12 (stereo unspecified) ?
0 (no)

So what was the verdict on COc1ccc(Oc2ncc3nc(C)c(=O)n(-c4ccccc4)c3n2)cc1 in this test?
0 (no)

Recorded call for SCc1nc2ccc(Cl)cc2[nH]1 ?
0 (no)

For CCOCCOC(=O)C(C)Oc1ccc(Oc2ncc(C(F)(F)F)cc2Cl)cc1 (stereo unspecified) , which call appears in the assay record?
0 (no)

Dear colleague, could you share the recorded outcome for NC(=O)Nc1ccc(/C=C/c2ccnc3ccccc23)cc1 when you have a moment?
0 (no)

Identify the outcome logged in this assay for the molecule shown: N#C/C(=C\c1ccc(O)c(O)c1)C(N)=O
1 (yes)

Entry CN=C1S/C(=C\c2c(OC)cc(OC)cc2OC)C(=O)N1C : call = ?
0 (no)

Which outcome was entered for the molecule C=COC(=O)N1CCN(/[N+]([O-])=N/Oc2ccc([N+](=O)[O-])cc2[N+](=O)[O-])CC1 in this test?
0 (no)

What call does the record list for O=C(C[n+]1ccncc1)c1ccc2c(c1)CCCC2 ?
0 (no)

GET /call?item= Cc1cc2oc(=O)cc(-c3ccccc3)c2c(C)c1/C=C/c1ccc(F)cc1 returns the recorded outcome of this test.
0 (no)

Recorded test outcome, item CC(C)C1N=C2c3ccccc3N=C(SCC(=O)c3ccc(O)c(O)c3)N2C1=O (stereo unspecified)
1 (yes)

* * *

- STUDY_SYSTEM: DNA polymerase kappa (Homo sapiens)
- TEST_SUMMARY: qHTS for Inhibitors of Polymerase Kappa; for activity, negative = inhibition: % is set by controls: 0 for no effect and ±100 for the full control effect
- STATED_CONDITIONS: purified Pol kappa, fluorescent DNA synthesis assay, 10 min; series mostly up to 107 µM
The whole screen tested about 400,000 compounds, of which about 2,200 (0.55%) were called active. Roughly 1% stayed inconclusive and do not appear here. This excerpt belongs to a sample that is enriched for actives.
READOUT_TYPE: activity, negative = inhibition

Return reported activity, negative = inhibition; argument: COc1ccc(CC(N)C(=O)NC2C(O)[C@H](n3cnc4c(N(C)C)ncnc43)O[C@@H]2CO)cc1 (some centres undefined)
3.17% [at 19.4 µM] (inactive)

Fill blank: measured activity, negative = inhibition of the compound CC[C@]1([C@H]2O[C@@H]([C@@H]3O[C@](O)(CO)[C@@H](C)C[C@H]3C)C[C@H]2C)CC[C@@H]([C@]2(C)CC[C@@]3(C[C@@H](O)[C@@H](C)[C@@H]([C@H](C)[C@H](OC)[C@H](C)C(=O)O)O3)O2)O1 is ____.
-5.79% [at 19.4 µM] (inactive)

Item Cc1csc(-c2nc3ccccc3n2C)n1 has what recorded activity, negative = inhibition?
-4.55% [at 19.4 µM] (inactive)

Record request: activity, negative = inhibition value, item CC(=O)/C(C)=N\O
-8.23% [at 19.4 µM] (inactive)

What value of activity, negative = inhibition has been reported for the following compound? Cc1cccc(-c2cc(=O)c3cc(C)ccc3o2)c1
-11.6% [at 19.4 µM] (inactive)

What measured activity, negative = inhibition goes with CC(C)[C@H](CO)Nc1nc(Nc2cc(N)cc(Cl)c2)c2ncn(C(C)C)c2n1 ?
-6.51% [at 19.4 µM] (inactive)

Please give the measured activity, negative = inhibition for this compound: COc1ccc2c(=O)cc(-c3ccccc3)oc2c1O
-8.18% [at 19.4 µM] (inactive)

Field request: activity, negative = inhibition | item: CCCCCCCC/C=C\CCCCCCCC(=O)OC[C@H](CO)OC(C)=O
0.528% [at 19.4 µM] (inactive)

Which activity, negative = inhibition value belongs to CC(C)[C@@H]1NC(=O)[C@H](Cc2ccccc2)NC(=O)[C@@H](CC(=O)O)NC(=O)CNC(=O)[C@H](CCCNC(=N)N)NC1=O ?
4% [at 19.4 µM] (inactive)

* * *

- STUDY_SYSTEM: DNA polymerase kappa (Homo sapiens) (UniProt Q9UBT6)
- Sequence (Q9UBT6 whole entry, looked up): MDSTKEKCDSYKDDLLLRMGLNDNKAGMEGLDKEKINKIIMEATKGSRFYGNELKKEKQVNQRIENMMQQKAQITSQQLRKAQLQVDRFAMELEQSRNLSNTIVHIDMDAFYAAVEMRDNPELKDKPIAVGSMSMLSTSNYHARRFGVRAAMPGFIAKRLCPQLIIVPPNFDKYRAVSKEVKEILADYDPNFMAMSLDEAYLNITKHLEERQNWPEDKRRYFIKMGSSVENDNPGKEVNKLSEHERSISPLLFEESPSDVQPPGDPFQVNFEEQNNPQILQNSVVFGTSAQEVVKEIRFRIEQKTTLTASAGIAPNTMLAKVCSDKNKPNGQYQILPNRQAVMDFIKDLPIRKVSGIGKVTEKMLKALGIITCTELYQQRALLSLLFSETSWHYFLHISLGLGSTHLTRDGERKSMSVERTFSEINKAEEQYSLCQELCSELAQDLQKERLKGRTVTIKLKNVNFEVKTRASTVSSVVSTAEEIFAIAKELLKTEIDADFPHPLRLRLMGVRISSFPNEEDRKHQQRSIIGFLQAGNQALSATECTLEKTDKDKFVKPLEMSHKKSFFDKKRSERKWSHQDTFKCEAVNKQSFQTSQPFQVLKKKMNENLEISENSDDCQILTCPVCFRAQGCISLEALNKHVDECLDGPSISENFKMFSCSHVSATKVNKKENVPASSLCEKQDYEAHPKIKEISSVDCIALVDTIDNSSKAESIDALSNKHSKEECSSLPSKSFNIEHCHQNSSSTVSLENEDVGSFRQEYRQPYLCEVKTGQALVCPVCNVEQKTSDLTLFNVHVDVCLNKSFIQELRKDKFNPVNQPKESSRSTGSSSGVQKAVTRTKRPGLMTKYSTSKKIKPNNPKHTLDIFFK
- TEST_SUMMARY: qHTS for Inhibitors of Polymerase Kappa
- STATED_CONDITIONS: purified Pol kappa, fluorescent DNA synthesis assay, 10 min; series mostly up to 107 µM
- From the text: The processing and repair of DNA interstrand crosslinks (ICL) in eukaryotic cells are extremely complex, potentially involving multiple DNA repair and damage tolerance pathways, including homologous recombination, nucleotide excision repair, translesion synthesis (TLS), and cell cycle checkpoints. To that end, in a collaboration between the Oregon Health & Science University and the NIH Chemical Genomics Center a 1536-well high-throughput screen was developed. […]
About 2,200 (0.55%) of roughly 400,000 compounds were called active. Not shown: some 1% with an inconclusive outcome. Calls follow the shape of the dose curve; as a rule, active = well fitted inhibition curve with a large enough effect; inconclusive = small, poorly fitted or top-dose-only effect, or another doubt; inactive = no such curve, though single readings can be large or run the other way. The sample as a whole holds a higher share of actives than the screen did.
API: response.call in y (active), n (inactive)

Returns: the outcome recorded for OCC(CO)NC1C[C@](O)(CO)[C@@H](O)[C@H](O)[C@H]1O (stereo partly drawn) in this assay.
n

# fetch the recorded call for OCCC(O)CO (stereo not drawn) here
n

So what was the verdict on C[C@@H]1O[C@@H](OC[C@H]2O[C@@H](Oc3c(-c4ccc(O)cc4)oc4cc(O)cc(O)c4c3=O)[C@H](O)[C@@H](O)[C@@H]2O)[C@H](O)[C@H](O)[C@H]1O in this test?
n

Dear colleague, could you share the recorded outcome for O=c1c(-c2cccs2)nc2cnc(Oc3ccccc3)nc2n1-c1ccccc1 when you have a moment?
n

Tell me the assay call for O=C(c1ccco1)N1CCC2(CC1)CCN(c1ncccn1)CC2 please.
n

Assay result, entry C[C@@H]1O[C@@H](OC[C@H]2O[C@@H](Oc3cc(O)c4c(c3)O[C@H](c3ccc(O)c(O)c3)CC4=O)[C@H](O)[C@@H](O)[C@@H]2O)[C@H](O)[C@H](O)[C@H]1O — outcome?
n

Short answer needed: outcome of this test for Cc1ccccc1NC(=O)CN1C(=O)N/C(=C\c2cccn2-c2cccc(C(=O)O)c2)C1=O ?
y

Answer briefly: the call reported for C[C@@H]1O[C@@H](OC[C@H]2O[C@@H](Oc3c(-c4cccc(O)c4O)oc4cc(O)cc(O)c4c3=O)[C@H](O)[C@@H](O)[C@@H]2O)[C@H](O)[C@H](O)[C@H]1O in this assay.
y

* * *

- STUDY_SYSTEM: DNA polymerase kappa (Homo sapiens) (UniProt Q9UBT6)
- TEST_SUMMARY: qHTS for Inhibitors of Polymerase Kappa
- STATED_CONDITIONS: purified Pol kappa, fluorescent DNA synthesis assay, 10 min; series mostly up to 107 µM
About 2,200 (0.55%) of roughly 400,000 compounds were called active. Not shown: some 1% with an inconclusive outcome. The call rests on the fitted dose curve; in most records, active means well fitted inhibition curve with a large enough effect; inconclusive means small, poorly fitted or top-dose-only effect, or another doubt; inactive means no such curve, though single readings can be large or run the other way. Shown is part of a subset that was picked to be rich in actives.
Classes to choose from: 1.0 for active, 0.0 for inactive

What did this assay record as the result for O=S(=O)(c1cc(Cl)ccc1Cl)N1CCN(Cc2ccco2)CC1 ?
0.0

Hi team, can someone confirm the assay call for Cc1ccc(C(=O)O)cc1-c1ccc(/C=C2\SC(=O)N(CC(=O)Nc3ccc4c(c3)OCO4)C2=O)o1 ?
1.0

// return assay outcome for CN(C)C(CNC(=O)CCCOc1ccccc1)c1ccco1 (configuration not stated)
0.0

Assay result, entry Cc1cc(C)c2nc(SCC(=O)N(C)C3CCS(=O)(=O)C3)cc(C)c2c1 (configuration not stated) — outcome?
0.0

Fill in: this test's call for COC(=O)c1ccc2c(c1)N(CC(=O)Nc1ccc(C)c(C)c1)C(=O)c1ccccc1S2 is ___
0.0

Hi team, can someone confirm the assay call for CCN1CCN(C(=O)C2CCN(S(=O)(=O)c3cc(Cl)ccc3Cl)CC2)CC1 ?
0.0

Hi team, can someone confirm the assay call for CN(C(=O)COC(=O)c1cc(-c2ccco2)nc2ccccc12)C1CCS(=O)(=O)C1 (configuration not stated) ?
1.0

What classification did Cn1c(=O)c2ccccc2n(CC(=O)Nc2ccc3c(c2)OCCO3)c1=O end up with in this test?
0.0

Assay result, entry O=C(Nc1ccc2nc(SCCOc3ccccc3)sc2c1)c1ccco1 — outcome?
0.0

Record lookup: outcome of this test for Fc1ccc(Cl)cc1-c1nc(Nc2ccncc2)c2nccnc2n1 ?
0.0

Hi, sorry to bother you, what did the test record for CCC(C)N(c1ccc(/C=C/c2ccnc3ccccc23)cc1)C(C)CC (configuration not stated) ?
0.0

GET /call?item= Cc1ccc(Cl)cc1NC(=O)CCS(=O)(=O)c1ccc(Br)s1 returns the recorded outcome of this test.
0.0

Just curious, what result did COc1cccc(Nc2ncc3ncc(=O)n(C4CC4)c3n2)c1 get here?
0.0

Could you please tell me the result logged for CCc1c2c(nc3ccc(O)cc13)-c1cc3c(c(=O)n1C2)COC(=O)[C@]3(O)CC in this assay?
0.0

What is the recorded call for this molecule in the test? CCNc1ncc2ncc(=O)n(Cc3cccc(OC)c3)c2n1
0.0

Hi team, can someone confirm the assay call for O=C(CN1CCN(S(=O)(=O)c2cc(Cl)ccc2Cl)CC1)c1ccc(O)c(O)c1 ?
1.0

Hey, what did the test say about C=CCC1CCC(=O)N2CCCC12 (configuration not stated) ?
0.0

Recorded call for CCOc1ccccc1/C=c1\sc2nc(-c3ccco3)nn2c1=O ?
1.0

Per the assay record, what outcome was assigned to CCN(c1ccc(Cl)cc1)S(=O)(=O)c1nnc(NC(=O)c2ccco2)s1 ?
0.0

Hey, what did the test say about CCN(C(=O)COC(=O)/C=C/c1nc2ccccc2s1)C1CCS(=O)(=O)C1 (configuration not stated) ?
0.0

Query: recorded result category for CN1CCCC1CCO[C@@](C)(c1ccccc1)c1ccc(Cl)cc1 (some centres not stated) in this test
0.0

Returns: the outcome recorded for CN(C)c1ccc(/C=C/C=C/c2ccnc3ccccc23)cc1 in this assay.
0.0
